# Test System: fusion protein PRR
# Sequence (chain, as listed by the source): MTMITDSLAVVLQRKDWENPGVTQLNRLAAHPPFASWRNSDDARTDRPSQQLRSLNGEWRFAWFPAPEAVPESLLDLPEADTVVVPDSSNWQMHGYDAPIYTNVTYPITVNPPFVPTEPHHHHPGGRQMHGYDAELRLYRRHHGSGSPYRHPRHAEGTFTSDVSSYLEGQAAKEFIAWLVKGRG
Result Type: relative cleavage efficiency

* OmpT protease variant OmpT D97G (protein) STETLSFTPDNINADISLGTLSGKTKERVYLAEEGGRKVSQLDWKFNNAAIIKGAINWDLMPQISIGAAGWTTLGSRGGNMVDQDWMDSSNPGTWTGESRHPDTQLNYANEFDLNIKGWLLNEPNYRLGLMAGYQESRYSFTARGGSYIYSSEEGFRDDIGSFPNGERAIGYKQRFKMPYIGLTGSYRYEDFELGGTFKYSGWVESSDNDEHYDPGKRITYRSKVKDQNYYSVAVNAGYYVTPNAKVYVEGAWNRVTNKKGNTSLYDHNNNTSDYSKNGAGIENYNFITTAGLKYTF | less than 3.0%
* OmpT protease variant OmpT D97Q (protein) STETLSFTPDNINADISLGTLSGKTKERVYLAEEGGRKVSQLDWKFNNAAIIKGAINWDLMPQISIGAAGWTTLGSRGGNMVDQDWMDSSNPGTWTQESRHPDTQLNYANEFDLNIKGWLLNEPNYRLGLMAGYQESRYSFTARGGSYIYSSEEGFRDDIGSFPNGERAIGYKQRFKMPYIGLTGSYRYEDFELGGTFKYSGWVESSDNDEHYDPGKRITYRSKVKDQNYYSVAVNAGYYVTPNAKVYVEGAWNRVTNKKGNTSLYDHNNNTSDYSKNGAGIENYNFITTAGLKYTF | < 3%
* OmpT protease variant OmpT D97Y (protein) STETLSFTPDNINADISLGTLSGKTKERVYLAEEGGRKVSQLDWKFNNAAIIKGAINWDLMPQISIGAAGWTTLGSRGGNMVDQDWMDSSNPGTWTYESRHPDTQLNYANEFDLNIKGWLLNEPNYRLGLMAGYQESRYSFTARGGSYIYSSEEGFRDDIGSFPNGERAIGYKQRFKMPYIGLTGSYRYEDFELGGTFKYSGWVESSDNDEHYDPGKRITYRSKVKDQNYYSVAVNAGYYVTPNAKVYVEGAWNRVTNKKGNTSLYDHNNNTSDYSKNGAGIENYNFITTAGLKYTF | less than 3.0%
* OmpT protease variant OmpT D97V (protein) STETLSFTPDNINADISLGTLSGKTKERVYLAEEGGRKVSQLDWKFNNAAIIKGAINWDLMPQISIGAAGWTTLGSRGGNMVDQDWMDSSNPGTWTVESRHPDTQLNYANEFDLNIKGWLLNEPNYRLGLMAGYQESRYSFTARGGSYIYSSEEGFRDDIGSFPNGERAIGYKQRFKMPYIGLTGSYRYEDFELGGTFKYSGWVESSDNDEHYDPGKRITYRSKVKDQNYYSVAVNAGYYVTPNAKVYVEGAWNRVTNKKGNTSLYDHNNNTSDYSKNGAGIENYNFITTAGLKYTF | less than 3.0%
* OmpT protease variant OmpT D97F (protein) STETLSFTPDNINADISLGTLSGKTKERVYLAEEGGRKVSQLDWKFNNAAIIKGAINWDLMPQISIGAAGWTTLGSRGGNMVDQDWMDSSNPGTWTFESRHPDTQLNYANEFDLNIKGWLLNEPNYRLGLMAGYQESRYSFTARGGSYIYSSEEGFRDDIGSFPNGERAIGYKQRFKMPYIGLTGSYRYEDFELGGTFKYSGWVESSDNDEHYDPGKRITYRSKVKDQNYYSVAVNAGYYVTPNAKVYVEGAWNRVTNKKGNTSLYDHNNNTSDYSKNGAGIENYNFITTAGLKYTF | < 3%
* OmpT protease variant OmpT D97N (protein) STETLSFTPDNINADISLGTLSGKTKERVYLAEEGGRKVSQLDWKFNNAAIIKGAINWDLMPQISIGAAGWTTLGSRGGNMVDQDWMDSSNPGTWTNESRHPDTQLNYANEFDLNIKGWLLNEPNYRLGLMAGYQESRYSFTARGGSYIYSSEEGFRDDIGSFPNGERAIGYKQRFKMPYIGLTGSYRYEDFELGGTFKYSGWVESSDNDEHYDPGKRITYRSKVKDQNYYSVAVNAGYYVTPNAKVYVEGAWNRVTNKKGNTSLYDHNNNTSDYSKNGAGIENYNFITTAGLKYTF | < 3%
* OmpT protease variant OmpT D97W (protein) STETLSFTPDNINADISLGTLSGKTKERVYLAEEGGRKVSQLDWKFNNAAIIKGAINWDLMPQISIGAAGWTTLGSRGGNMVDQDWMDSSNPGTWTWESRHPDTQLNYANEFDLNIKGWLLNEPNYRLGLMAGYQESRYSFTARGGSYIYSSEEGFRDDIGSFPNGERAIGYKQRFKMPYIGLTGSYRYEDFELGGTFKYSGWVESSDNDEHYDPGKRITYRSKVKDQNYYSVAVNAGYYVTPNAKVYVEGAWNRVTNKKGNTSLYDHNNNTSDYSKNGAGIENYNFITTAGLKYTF | less than 3.0%
* OmpT protease variant OmpT D97T (protein) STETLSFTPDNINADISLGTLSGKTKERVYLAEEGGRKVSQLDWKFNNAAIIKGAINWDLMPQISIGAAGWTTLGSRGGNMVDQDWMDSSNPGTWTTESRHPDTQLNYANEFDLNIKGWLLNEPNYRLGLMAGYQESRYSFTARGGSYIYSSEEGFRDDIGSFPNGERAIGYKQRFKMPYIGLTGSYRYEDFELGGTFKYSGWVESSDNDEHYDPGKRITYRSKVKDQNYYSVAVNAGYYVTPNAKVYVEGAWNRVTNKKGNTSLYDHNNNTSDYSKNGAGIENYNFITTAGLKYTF | < 3%
